ASSAY_INFO: TG/DTA thermal analysis of crystal forms
Type: physicochemical
RECORDED_CONDITIONS: heated 10° C./min from 20° C. to 300° C. under nitrogen
ENDPOINT: temperature above which the material degrades (TG/DTA)

MOLECULE	RESULT_VALUE
N[C@@]1(c2ccccc2Cl)CCC[C@@H](O)C1=O.O=C(O)C(O)C(O)C(=O)O [2R,6R-Hydroxynorketamine L-Tartrate, 2R,6R-hydroxynorketamine L-tartrate]	above 157 °C
NC1(c2ccccc2Cl)CCCC(O)C1=O.O=C(O)CC(O)(CC(=O)O)C(=O)O (stereo not drawn) [2R,6R-Hydroxynorketamine Citrate]	above 157 °C
N[C@@]1(c2ccccc2Cl)CCC[C@@H](O)C1=O.O=C1CC[C@@H](C(=O)O)N1 [2R,6R-hydroxynorketamine L-pyroglutamate]	above 159 °C
NC1(c2ccccc2Cl)CCCC(O)C1=O.O=C(O)C=CC(=O)O.O=C(O)C=CC(=O)O (stereo not drawn) [2R,6R-Hydroxynorketamine Difumarate, 2R,6R-hydroxynorketamine difumarate]	above 159 °C
